- Tested on: PC-3 prostate
- methodNotes: NCI-60 one-dose screen, 48 h (100 = growth as untreated, 0 = no growth, -100 = all killed)
- protocolConditions: 10 µM unless noted
This is part of a sample that, as a whole, favours compounds with a hit. Of some 83,000 tested, about 20% had one in any assay.
experimentalReadout: growth (%)
Please respond with the number in % and leave the unit unwritten.

Some compounds with recorded growth:
compound="Clc1cc(Cl)cc(N2N=C(c3cccc(Nc4ccncc4)c3)CC2c2ccc3c(c2)OCO3)c1 (stereo not drawn)" experimentalreadout=growth endpointresult=28.7
compound=CCOC(=O)c1ccc(Nc2ccnc(SCC(=O)c3ccc(C#N)cc3)n2)cc1 experimentalreadout=growth endpointresult=39.6
compound=CCCCCCNC(=O)Oc1ccc(/C(=C(/CC)Cc2ccccc2)c2ccc(OCCN(CC)CC)cc2)cc1 experimentalreadout=growth endpointresult=51.6
compound=C=C(C)[C@@H]1CC[C@]2(C(=O)NCC(=O)OC)CC[C@]3(C)[C@H](CC[C@@H]4[C@@]5(C)Cc6c([nH]c7ccccc67)C(C)(C)[C@@H]5CC[C@]43C)[C@@H]12 experimentalreadout=growth endpointresult=49.1
compound=FC(F)(F)c1cccc(Oc2ccc(Nc3ncnc4ccc(OCCCN5CCOCC5)cc34)cc2Cl)c1 experimentalreadout=growth endpointresult=49.1

Fill in the blank: the reported growth of CC(N)C(=O)NNc1n[nH]c(=S)n1N (stereo not drawn) is ____. 99.6

Record: COc1nc(N)nc(-n2c(-c3ccc(C)cc3)nc3ccccc32)c1NCc1ccc(C)cc1 65.7

Do the same for CCNNC(=O)[C@@H]1[C@H](c2cc(OC)c(OC)c(OC)c2)c2cc3c(cc2[C@H](O)[C@H]1CO)OCO3 please 12.5
